Each entry below carries its reported inhibition.
- target.or.test.system: Inhibitor of nuclear factor kappa-B kinase subunit epsilon (Homo sapiens);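 also: reported values are averaged percent inhibition figures against human IKKε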
- condition.parameters: at 1 µM
metric: inhibition (%)

>>> print(df.to_string())
                                test_smiles      metric  recorded_number
0   NS(=O)(=O)c1ccc(Nc2ncc(-c3ccccc3)o2)cc1  inhibition             5.67
1  FC(F)(F)c1cccc(-c2nn3ncccc3c2-c2ccnc(Nc3ccc4c(c3)OCCO4)n2)c1  inhibition             2.87
2  c1cc(-c2cnn3nc(N4CCOCC4)ccc23)nc(NC2CC2)n1  inhibition             5.49
3   Nc1nc(-c2ccc(F)cc2)c(-c2ccc3ncccc3n2)s1  inhibition              7.4
4          CNC(=O)c1cncc(/C=C/c2ccccc2Cl)c1  inhibition             2.69
5  CC(=O)NCc1cccc(C#Cc2cncnc2Nc2ccc(OCc3cccc(F)c3)c(Cl)c2)c1  inhibition               -1
6  COc1ccc(CNC(=O)c2ccc(-c3cc(-c4nnc(C)o4)ccc3C)cc2)cc1  inhibition             3.56
7  COc1cc2ncn(-c3cc(OCc4ccccc4C(F)(F)F)c(C(=O)N(C)C)s3)c2cc1OC  inhibition              2.1
8       COc1cc(/C=N/Nc2ncnc3[nH]ncc23)ccc1O  inhibition             96.3
9  Cc1cccc2c1NC(=O)/C2=N\Nc1ccc(S(N)(=O)=O)cc1  inhibition             3.85

---

- target.or.test.system: Tyrosine-protein kinase Srms (Homo sapiens) (UniProt Q9H3Y6)
- Sequence (Q9H3Y6 whole entry): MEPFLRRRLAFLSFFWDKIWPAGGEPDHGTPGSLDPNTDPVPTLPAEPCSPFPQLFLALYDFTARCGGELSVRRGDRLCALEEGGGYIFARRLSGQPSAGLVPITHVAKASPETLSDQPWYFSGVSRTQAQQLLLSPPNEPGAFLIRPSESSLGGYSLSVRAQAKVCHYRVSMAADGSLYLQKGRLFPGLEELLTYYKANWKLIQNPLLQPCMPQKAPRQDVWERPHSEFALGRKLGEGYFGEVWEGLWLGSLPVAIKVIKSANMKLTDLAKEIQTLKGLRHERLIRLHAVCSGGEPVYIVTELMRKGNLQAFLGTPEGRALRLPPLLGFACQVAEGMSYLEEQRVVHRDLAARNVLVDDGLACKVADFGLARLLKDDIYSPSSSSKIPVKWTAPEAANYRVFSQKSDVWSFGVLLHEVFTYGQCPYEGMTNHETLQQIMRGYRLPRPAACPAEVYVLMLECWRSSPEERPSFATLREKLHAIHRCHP
- condition.parameters: at 1 µM
- Description: GSK_PKIS: SRMS mean inhibition at 1 uM [Nanosyn]
Each entry below carries its reported inhibition.
metric: inhibition (%)

                                test_smiles      metric  readout_units  recorded_number
0  Fc1cccc(COc2ccc(Nc3ncnc4sc(-c5ccco5)cc34)cc2Cl)c1  inhibition              %            -1.36
1  CCCN1CCC(c2ccc(Nc3nc(Nc4cc(F)ccc4C(N)=O)c4cc[nH]c4n3)c(OC)c2)CC1  inhibition              %             14.8
2  Fc1ccc(-c2cc(-c3c[nH]nc3-c3ccccn3)ccn2)cc1  inhibition              %            -1.26
3  CCCN(CCS(C)(=O)=O)Cc1ccc(-c2ccc3ncnc(Nc4ccc(OCc5cccc(F)c5)c(Cl)c4)c3c2)o1  inhibition              %             2.29
4  FC(F)(F)c1cccc(-c2nn3ncccc3c2-c2ccnc(Nc3ccc4c(c3)OCCO4)n2)c1  inhibition              %             2.59

---

Each entry below carries its reported inhibition.
- target.or.test.system: Protein-tyrosine kinase 2-beta (Homo sapiens) (UniProt Q14289);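 also: reported as mean percent inhibition of PYK2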
- Sequence (Q14289 whole entry, looked up): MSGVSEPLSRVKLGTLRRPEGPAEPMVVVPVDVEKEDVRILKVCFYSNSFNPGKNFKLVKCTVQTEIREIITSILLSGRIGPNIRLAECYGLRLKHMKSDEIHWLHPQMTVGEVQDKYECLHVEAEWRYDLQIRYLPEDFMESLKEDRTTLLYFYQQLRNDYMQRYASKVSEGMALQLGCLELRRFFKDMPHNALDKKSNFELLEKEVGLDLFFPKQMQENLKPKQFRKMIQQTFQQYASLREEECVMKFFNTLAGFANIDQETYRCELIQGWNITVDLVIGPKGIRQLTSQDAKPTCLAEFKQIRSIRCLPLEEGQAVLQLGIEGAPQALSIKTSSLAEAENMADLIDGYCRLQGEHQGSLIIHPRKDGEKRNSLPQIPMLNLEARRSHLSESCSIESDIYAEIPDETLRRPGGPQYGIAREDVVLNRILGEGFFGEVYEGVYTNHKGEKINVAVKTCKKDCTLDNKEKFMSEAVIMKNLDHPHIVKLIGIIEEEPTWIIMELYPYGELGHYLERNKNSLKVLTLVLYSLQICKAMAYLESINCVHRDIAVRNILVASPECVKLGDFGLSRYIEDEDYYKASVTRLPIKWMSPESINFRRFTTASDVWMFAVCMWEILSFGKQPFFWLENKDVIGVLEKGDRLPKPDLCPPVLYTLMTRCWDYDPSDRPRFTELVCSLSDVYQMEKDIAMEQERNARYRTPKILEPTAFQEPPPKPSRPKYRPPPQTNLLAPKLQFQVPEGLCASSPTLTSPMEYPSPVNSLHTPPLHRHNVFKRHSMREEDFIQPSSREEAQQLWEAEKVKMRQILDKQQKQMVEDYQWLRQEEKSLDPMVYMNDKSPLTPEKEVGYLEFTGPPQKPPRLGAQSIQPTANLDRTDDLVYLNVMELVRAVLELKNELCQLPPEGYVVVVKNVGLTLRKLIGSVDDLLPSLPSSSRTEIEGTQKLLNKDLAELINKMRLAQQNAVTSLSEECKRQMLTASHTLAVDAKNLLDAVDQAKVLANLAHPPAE
- condition.parameters: at 0.1 µM
metric: inhibition (%)

>>> print(df.to_string())
                                test_smiles                     target_or_test_system  recorded_number
0  COc1cc(N2CCN(C(C)C)CC2)ccc1Nc1nc(Nc2ccc(F)cc2C(N)=O)c2cc[nH]c2n1  Protein-tyrosine kinase 2-beta (Homo sapiens) (UniProt Q14289)             95.5
1  CCOc1ccc2c(-c3ccnc(Nc4cccc(C(F)(F)F)c4)n3)cnn2n1  Protein-tyrosine kinase 2-beta (Homo sapiens) (UniProt Q14289)               -2
2                CCn1c(-c2nonc2N)nc2ccccc21  Protein-tyrosine kinase 2-beta (Homo sapiens) (UniProt Q14289)             4.43
3  Fc1ccc(-c2cc(-c3c[nH]nc3-c3ccccn3)ccn2)cc1  Protein-tyrosine kinase 2-beta (Homo sapiens) (UniProt Q14289)             7.36
4  c1ccc(COc2ccc(Nc3ncnc4ccc(-c5ccco5)cc34)cc2)cc1  Protein-tyrosine kinase 2-beta (Homo sapiens) (UniProt Q14289)            -2.12
5  CCn1cc(-c2ccnc3[nH]ccc23)c(-c2cccc(NC(=O)Nc3ccc(OCc4ccccc4)cc3)c2)n1  Protein-tyrosine kinase 2-beta (Homo sapiens) (UniProt Q14289)             3.44
6  COc1ccc2c(-c3ccnc(Nc4cccc(OC(F)(F)F)c4)n3)cnn2n1  Protein-tyrosine kinase 2-beta (Homo sapiens) (UniProt Q14289)             14.4
7  Cc1cccc2c1NC(=O)/C2=N\Nc1ccc(S(N)(=O)=O)cc1  Protein-tyrosine kinase 2-beta (Homo sapiens) (UniProt Q14289)             3.22
8   NS(=O)(=O)c1ccc(Nc2ncc(-c3ccccc3)o2)cc1  Protein-tyrosine kinase 2-beta (Homo sapiens) (UniProt Q14289)             10.6
9          CNC(=O)c1cncc(/C=C/c2ccccc2Cl)c1  Protein-tyrosine kinase 2-beta (Homo sapiens) (UniProt Q14289)             -1.7
